assayed system: Adenosine receptor A1 (Rattus norvegicus) (UniProt P25099)
Sequence (whole entry): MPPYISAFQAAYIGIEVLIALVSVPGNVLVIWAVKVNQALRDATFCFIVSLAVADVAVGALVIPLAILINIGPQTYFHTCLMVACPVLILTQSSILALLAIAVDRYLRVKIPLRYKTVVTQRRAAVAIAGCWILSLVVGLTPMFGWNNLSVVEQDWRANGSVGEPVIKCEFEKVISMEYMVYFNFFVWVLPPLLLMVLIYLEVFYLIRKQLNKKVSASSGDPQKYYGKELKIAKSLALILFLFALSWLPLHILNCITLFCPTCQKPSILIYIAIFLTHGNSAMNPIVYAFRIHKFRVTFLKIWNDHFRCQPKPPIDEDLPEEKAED
assay info: Ability to displace [3H]N6-phenylisopropyladenosine binding from adenosine A1 receptor.
parameter: pKi(uM)
Please respond with just the number, no unit label.

Adenosine receptor A1 (Rattus norvegicus) (UniProt P25099) data for "CCOc1c2ccoc2cc2oc(/C=C/c3ccccc3)cc(=O)c12" ; its pKi(uM): -1.55

Tested system Adenosine receptor A1 (Rattus norvegicus) (UniProt P25099); pKi(uM) recorded for "COc1c2ccoc2cc2oc(/C=C/c3ccccc3)cc(=O)c12" was -1.51

Tested on Adenosine receptor A1 (Rattus norvegicus) (UniProt P25099): "O=c1cc(-c2ccccc2)oc2c1ccc1ccccc12" . Observed pKi(uM): 0.1

Reported Adenosine receptor A1 (Rattus norvegicus) (UniProt P25099) pKi(uM) for item COc1ccc2c(c1)C(=O)C(O)C(C#Cc1ccccc1)O2 (stereo unspecified) was -1.7

"COc1cc2oc(-c3ccc(O)cc3)cc(=O)c2c(O)c1OC" on Adenosine receptor A1 (Rattus norvegicus) (UniProt P25099) gives pKi(uM) = -0.08

"O=c1cc(-c2ccc(O)cc2)oc2cc(O)cc(O)c12" tested on Adenosine receptor A1 (Rattus norvegicus) (UniProt P25099) gave pKi(uM): -0.48

Value sought: pKi(uM), system Adenosine receptor A1 (Rattus norvegicus) (UniProt P25099), item "COc1ccc(-c2cc(=O)c3c(O)cc(C)cc3o2)cc1" . Result: -0.53

Assay Adenosine receptor A1 (Rattus norvegicus) (UniProt P25099), sample COc1cc(O)c2c(c1)OC(c1ccc(O)cc1)CC2=O (stereo unspecified) , pKi(uM) read: -0.91

Summary: "O=c1cc(-c2ccccc2)oc2ccccc12" , Adenosine receptor A1 (Rattus norvegicus) (UniProt P25099), pKi(uM) = -0.52

// assay Adenosine receptor A1 (Rattus norvegicus) (UniProt P25099), entry "CC(=O)Oc1cc(OC(C)=O)c2c(=O)c(OC(C)=O)c(-c3ccccc3)oc2c1" , pKi(uM) value = -1.06

Let me check: "CCOc1cc(OCC)c2c(=O)c(OCC)c(-c3ccccc3)oc2c1" , system Adenosine receptor A1 (Rattus norvegicus) (UniProt P25099), measured pKi(uM) is 0.22

# value of pKi(uM), Adenosine receptor A1 (Rattus norvegicus) (UniProt P25099), item "COc1cc(OC)c2c(=O)c(OC)c(-c3ccccc3)oc2c1" = 0.29

Log: Adenosine receptor A1 (Rattus norvegicus) (UniProt P25099), compound "COc1ccc(-c2oc3cc(OC)cc(OC)c3c(=O)c2OC)cc1" , pKi(uM) = -0.03

Given the compound O=C1c2ccccc2OC(c2ccccc2O)C1O (stereo unspecified) and test system Adenosine receptor A1 (Rattus norvegicus) (UniProt P25099), the measured pKi(uM) is -1.96

"COc1cc(OC)c(-c2oc3ccccc3c(=O)c2O)c(OC)c1" tested on Adenosine receptor A1 (Rattus norvegicus) (UniProt P25099) gave pKi(uM): -0.86

For the compound "O=c1cc(-c2ccccc2)oc2cc(O)ccc12" , the measured pKi(uM) on Adenosine receptor A1 (Rattus norvegicus) (UniProt P25099) was -0.48

Reported Adenosine receptor A1 (Rattus norvegicus) (UniProt P25099) pKi(uM) for item "COc1ccc(-c2cc(=O)c3ccc(O)cc3o2)cc1OC" was -1.27

Reading of pKi(uM) for O=C1CC(c2ccc(O)cc2)Oc2ccccc21 (stereo unspecified) with Adenosine receptor A1 (Rattus norvegicus) (UniProt P25099): -1.06

The compound "COc1ccc(-c2cc(=O)c3c(OC)c(OC)c(OC)cc3o2)cc1" on Adenosine receptor A1 (Rattus norvegicus) (UniProt P25099): pKi(uM) was -0.11

With Adenosine receptor A1 (Rattus norvegicus) (UniProt P25099) as the test system, O=C1CC(c2ccccc2O)Oc2ccccc21 (stereo unspecified) showed pKi(uM) of -0.42

So the reported pKi(uM) for "COc1c(O)cc2oc(-c3ccc(O)cc3)cc(=O)c2c1O" , on Adenosine receptor A1 (Rattus norvegicus) (UniProt P25099), turned out to be -0.21

---

assayed system: Adenosine receptor A3 (Homo sapiens) (UniProt P0DMS8)
Sequence (P0DMS8 whole entry): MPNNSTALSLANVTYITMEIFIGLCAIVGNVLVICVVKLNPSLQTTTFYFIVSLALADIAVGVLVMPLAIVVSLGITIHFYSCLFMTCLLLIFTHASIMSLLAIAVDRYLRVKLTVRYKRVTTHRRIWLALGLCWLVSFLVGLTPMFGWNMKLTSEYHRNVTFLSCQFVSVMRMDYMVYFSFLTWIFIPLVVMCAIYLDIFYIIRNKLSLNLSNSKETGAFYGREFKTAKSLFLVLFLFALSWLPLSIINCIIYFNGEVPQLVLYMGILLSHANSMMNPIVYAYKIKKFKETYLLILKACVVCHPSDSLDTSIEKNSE
assay info: Ability to displace [125I]-AB-MECA binding from adenosine A3 receptor.
Label rule, in plain words: pKi(uM) of -1 and up is true (1), under -1 is false (0).

Determine whether this compound has pKi(uM) no lower than -1: "COc1cc(OC)c(-c2oc3ccccc3c(=O)c2O)c(OC)c1"
false (0)

Tell me whether pKi(uM) is at least -1 here: COc1ccc2c(c1)C(=O)C(O)C(/C=C/c1ccccc1)O2 (configuration not stated)
false (0)

Could you verify whether the entry "COc1cc(OC)c2c(=O)c(OC)c(-c3cc(OC)c(OC)c(OC)c3)oc2c1" shows pKi(uM) of no less than -1?
true (1)

Given COc1ccc2c(c1)C(=O)C(O)C(C#Cc1ccccc1)O2 (configuration not stated) , state whether its pKi(uM) is at least -1.
true (1)

Exam item: decide whether the reported pKi(uM) for "CCOc1c2ccoc2cc2oc(/C=C/C=C/c3ccccc3)cc(=O)c12" is at least -1.
false (0)

Quick check: does "CCOc1ccc(-c2oc3cc(OCC)cc(O)c3c(=O)c2OCC)c(OCC)c1" have pKi(uM) greater than or equal to -1?
true (1)

Reported pKi(uM) reaches at least -1 for "O=c1c(Cl)c(-c2ccccc2)oc2ccccc12" ?
false (0)

---

assayed system: Adenosine receptor A2a (Rattus norvegicus)
assay info: Ability to displace [3H]-CGS- 21680 binding from adenosine A2A receptor.
Decide by pKi(uM): equal to or exceeding -0.9 means t, less means f.

Form field: pKi(uM) at least -0.9? Entry: "CCOc1c2ccoc2cc2oc(/C=C/c3ccccc3)cc(=O)c12"
f

API: above_or_equal(metric=pKi(uM), cutoff=-0.9) for item "CCOc1c2ccoc2cc2oc(/C=C/C=C/c3ccccc3)cc(=O)c12"
f

// inclusive: pKi(uM) at least -0.9? input: "COc1cc2oc(-c3ccc(O)cc3)cc(=O)c2c(O)c1OC"
t

Item "CCOc1ccc(-c2oc3cc(OCC)cc(OCC)c3c(=O)c2OCC)c(OCC)c1" with pKi(uM) of -0.9 or above?
f

Reported pKi(uM) at or above -0.9? O=C1CC(c2ccccc2O)Oc2ccccc21 (stereo not drawn)
f

Could you please find out whether "CCOc1cc(O)c2c(=O)c(OCC)c(-c3ccccc3)oc2c1" has pKi(uM) that meets -0.9 or exceeds it?
f

Determine whether this compound has pKi(uM) no lower than -0.9: "O=c1cc(-c2ccccc2)oc2c1ccc1ccccc12"
t

Check the entry "O=c1c(Cl)c(-c2ccccc2)oc2ccccc12" : does pKi(uM) equal or exceed -0.9?
f

Test whether the compound "O=c1c(O)c(-c2ccc(O)c(O)c2)oc2cc(O)cc(O)c12" records pKi(uM) of -0.9 or higher.
t

Kindly determine if pKi(uM) recorded for "O=c1c(Cl)c(-c2ccccc2)oc2ccc(Cl)cc12" is above or exactly -0.9.
f

Form field: pKi(uM) at least -0.9? Entry: "COc1cc(OC)c2c(=O)c(OC)c(-c3ccccc3)oc2c1"
t

Say whether "COc1ccc(-c2cc(=O)c3c(O)cc(C)cc3o2)cc1" shows pKi(uM) of -0.9 or more.
f

Does the compound "COc1c2ccoc2cc2oc(C)cc(=O)c12" have recorded pKi(uM) that is -0.9 or more?
f

Does pKi(uM) meet or surpass -0.9 for "CCOc1cc(OCC)c2c(=O)c(OCC)c(-c3ccccc3)oc2c1" ?
t

Given the entry CC(=O)Oc1cc(OC(C)=O)c2c(c1)OC(c1ccccc1)C(OC(C)=O)C2=O (stereo not drawn) , answer whether its pKi(uM) meets or surpasses -0.9.
f

Answer whether pKi(uM) of "O=c1cc(-c2ccccc2)oc2ccccc12" is greater than or equal to -0.9.
t

Entry COc1cc(O)c2c(c1)OC(c1ccc(O)cc1)CC2=O (stereo not drawn) : is its pKi(uM) no less than -0.9?
f

Record "COc1c2ccoc2cc2oc(/C=C/c3ccccc3)cc(=O)c12" ; criterion: pKi(uM) no lower than -0.9. Met?
f

Hi, just wondering whether "O=c1cc(-c2ccccc2)oc2cccc(O)c12" shows pKi(uM) of -0.9 or higher.
t

# bool: pKi(uM) of "O=c1cc(-c2ccccc2)oc2cc(O)ccc12" >= -0.9
t

Entry "COc1ccc(-c2cc(=O)c3ccc(O)cc3o2)cc1OC" : is its pKi(uM) no less than -0.9?
f

These data points were gathered from ChEMBL document CHEMBL1131204.
